system: RXRa DBDmut IVT, anti-RXR (DBD mutation: RXRa K156A/R161A, NR concentration 90 nM); assay: PBM binding z-score (relative to random genomic background probes); higher = stronger binding; sequences stand for … in GC…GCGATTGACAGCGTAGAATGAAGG
# PBM binding z-score per record follows
Lab note: record the figure alone, no unit after it.

Exam item: Which PBM binding z-score is listed for CGAACTAGGTCAAGGTCAGTGAATCTCCGCACGC ?
Marked response: 2.29

====

# PBM binding z-score per record follows
tested on: RARa:RXR (NR concentration 270 nM, RXRa partner concentration 90 nM); assay: PBM binding z-score (relative to random genomic background probes); higher = stronger binding; sequences stand for … in GC…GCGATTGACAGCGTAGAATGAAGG
Lab note: record the figure alone, no unit after it.

Answered cases to consult:
{"Input sequence": "TCTTGTAGATGAAAGGTTAAGAAAGCCGAAGCCT", "Target": "RARa:RXR (NR concentration 270 nM, RXRa partner concentration 90 nM)", "Measured endpoint": "PBM binding z-score", "Experimental result": 2.05}
{"Input sequence": "ATCGAGAGGTCGAGGTGAGTATAGAGAAAGGGAA", "Target": "RARa:RXR (NR concentration 270 nM, RXRa partner concentration 90 nM)", "Measured endpoint": "PBM binding z-score", "Experimental result": 2.63}
{"Input sequence": "TCGCGTAGGTTAGGGGCATTCAGAATGGCGTCGA", "Target": "RARa:RXR (NR concentration 270 nM, RXRa partner concentration 90 nM)", "Measured endpoint": "PBM binding z-score", "Experimental result": 0.615}
{"Input sequence": "ATCTCTAGGTAAAAATTCAGTGAATCCCGAGGAT", "Target": "RARa:RXR (NR concentration 270 nM, RXRa partner concentration 90 nM)", "Measured endpoint": "PBM binding z-score", "Experimental result": -0.0791}

Exam item: Which PBM binding z-score is listed for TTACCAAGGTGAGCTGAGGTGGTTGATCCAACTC ?
Marked response: 1.53

Exam item: Which PBM binding z-score is listed for CGAGCTAGGTCAAGGACAGTGAATCTCCGCACGC ?
Marked response: 2.02

Exam item: Which PBM binding z-score is listed for ATATGTAGGTTAAGGGTCACTCAGGTTGGTTCGC ?
Marked response: 6.1

Exam item: Which PBM binding z-score is listed for GCTGTTAGGTCAGGTTGGTCAGCTAACGGGTACG ?
Marked response: 1.28

Exam item: Which PBM binding z-score is listed for ACTCGGAGGACAAAGGACAGAGCTACGCCAGTGA ?
Marked response: -0.495

Exam item: Which PBM binding z-score is listed for CCTTACGGGTCACTGACAGGTTATGGCATTTGGA ?
Marked response: 4.95

====

test system: RARb:RXRa (NR concentration 270 nM, RXRa partner concentration 90 nM); test: PBM binding z-score (relative to random genomic background probes); higher = stronger binding; sequences stand for … in GC…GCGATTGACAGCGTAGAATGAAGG
Grouping by measured PBM binding z-score is done with the following cut points: lower level: < 0.9; middle level: ≥ 0.9 and < 4; upper level: ≥ 4

{"Input sequence": "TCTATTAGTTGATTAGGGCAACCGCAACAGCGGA", "Class": "lower level"}
{"Input sequence": "ACTTACGGATCAACGAGGTTATAGCACGCGTATA", "Class": "lower level"}
{"Input sequence": "TTACCAAGGTGAAGGTCGTTGATCCCTCTGTAGA", "Class": "middle level"}
{"Input sequence": "TTACCAAGTTGAAGGTCGTTGATCCCTCTGTAGA", "Class": "middle level"}
{"Input sequence": "ATCGCAAGGTCGTGAGGTGAGTATACAGAAAGGC", "Class": "middle level"}
{"Input sequence": "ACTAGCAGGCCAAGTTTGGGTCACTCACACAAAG", "Class": "middle level"}
{"Input sequence": "CGTCCAAGGTCAATGCTGGGTCAGTGAAAGCATT", "Class": "upper level"}
{"Input sequence": "AGTCAAAGTTCATCTAGGTAACGCAAGATATGCT", "Class": "upper level"}

Exam item: Hi there! Could you help me figure out the category for GCGACTGGGGCGAAGCAGGTTACCATAAGGTTGG please?
Marked response: lower level

Taken from the supplement of paper PMC6555819.
